Cited source for all entries: the supplement of paper PMC7877785

experiment: self-splicing fitness, log relative to wild type (ln ratio); higher = more splicing; Tetrahymena group I intron in knt gene, E. coli kanamycin selection, DiMSum; sequences stand for … in CUCUCU…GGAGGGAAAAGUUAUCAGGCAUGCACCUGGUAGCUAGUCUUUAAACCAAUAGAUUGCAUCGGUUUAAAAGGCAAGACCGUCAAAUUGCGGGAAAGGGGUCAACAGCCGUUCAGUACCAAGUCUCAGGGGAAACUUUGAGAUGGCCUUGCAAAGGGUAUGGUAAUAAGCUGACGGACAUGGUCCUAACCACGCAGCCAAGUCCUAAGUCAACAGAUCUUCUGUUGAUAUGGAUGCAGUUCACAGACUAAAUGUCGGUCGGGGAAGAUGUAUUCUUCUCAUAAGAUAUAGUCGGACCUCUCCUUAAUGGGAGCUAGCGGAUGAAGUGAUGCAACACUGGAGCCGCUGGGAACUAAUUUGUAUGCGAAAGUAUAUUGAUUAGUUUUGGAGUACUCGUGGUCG; settings: 30 °C;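 also: selection with 25 µg/mL kanamycin versus none on LB agar overnight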
Binary classification by self-splicing fitness (ln), with -2 as an inclusive lower bound for TRUE; all other cases are FALSE.

Worked examples follow.
SEQUENCE_ENTRY	GROUP_LABEL
UCCUAGCAAUAUUACGAGCU	FALSE
AGUGAGCAAUAUUACGGAGU	FALSE

query: Does self-splicing fitness (ln) meet or surpass -2 for AACAAGCAAUAUUACGGGCA ?
result: TRUE

query: Does self-splicing fitness (ln) meet or surpass -2 for ACCUAGCAAUAUUACGCAUG ?
result: FALSE

query: Does self-splicing fitness (ln) meet or surpass -2 for CAACAGCAAUAUUACGGAUU ?
result: FALSE

query: Does self-splicing fitness (ln) meet or surpass -2 for GCAAAGCAAUAUUACGAGGC ?
result: FALSE

query: Does self-splicing fitness (ln) meet or surpass -2 for GACUAGCAAUAUUACGGGCG ?
result: TRUE

query: Does self-splicing fitness (ln) meet or surpass -2 for AGAAAGCAAUAUUACGGCAC ?
result: TRUE

query: Does self-splicing fitness (ln) meet or surpass -2 for GCGCAGCAAUAUUACGUUCA ?
result: TRUE

query: Does self-splicing fitness (ln) meet or surpass -2 for UAAAAGCAAUAUUACGAUAU ?
result: FALSE

query: Does self-splicing fitness (ln) meet or surpass -2 for GAGAAGCAAUAUUACGCUAU ?
result: FALSE

query: Does self-splicing fitness (ln) meet or surpass -2 for UAAGAGCAAUAUUACGAUGG ?
result: FALSE

query: Does self-splicing fitness (ln) meet or surpass -2 for GCCCAGCAAUAUUACGCGAG ?
result: FALSE

query: Does self-splicing fitness (ln) meet or surpass -2 for UCGUAGCAAUAUUACGGUCU ?
result: FALSE

query: Does self-splicing fitness (ln) meet or surpass -2 for CAGCAGCAAUAUUACGAUGA ?
result: FALSE

query: Does self-splicing fitness (ln) meet or surpass -2 for GGUCAGCAAUAUUACGAUGA ?
result: TRUE

query: Does self-splicing fitness (ln) meet or surpass -2 for CAACAGCAAUAUUACGUUGU ?
result: FALSE

query: Does self-splicing fitness (ln) meet or surpass -2 for GAACAGCAAUAUUACGGGGA ?
result: TRUE
